TEST_DESCRIPTION: blood morphology, blood biochemistry and organ weights of mice with 67NR tumor
CONDITION_PARAMETERS: Table S2, mice with 67NR tumor, 50 mg/kg
Answer each item with its documented MCV.

test_smiles=NS(=O)(=O)Oc1ccc(-c2cn(-c3cc(Cl)cc(Cl)c3)nn2)cc1 test_value="46,8±0,9 fL"
test_smiles=NS(=O)(=O)Oc1ccc(-c2cn(-c3cccc(F)c3)nn2)cc1 test_value="47,4±2,8 fL"
test_smiles=NS(=O)(=O)Oc1ccc(-c2cn(-c3ccc(F)c(F)c3F)nn2)cc1 test_value="47±1,2 fL"
test_smiles=NS(=O)(=O)Oc1ccc(-c2cn(-c3cccc(Cl)c3)nn2)cc1 test_value="47,1±1 fL"

Now examine the next entry.
input: Consider the molecule shown here: NS(=O)(=O)Oc1ccc(-c2cn(-c3cc(F)cc(F)c3)nn2)cc1 What is its recorded MCV?
output: 46,4±0,7 fL

====

So I've got a bunch of molecules here, and I need their remaining activity at 0.1 µM values.
TESTED_SYSTEM: STS in MCF-7 cells (Homo sapiens)
Construct: The radioisotope cellular assay was performed using the MCF-7 cell line; endogenous in cells; host or cells: MCF-7
TEST_DESCRIPTION: radioisotope cellular assay with [3H]E1S in MCF-7 cells
Format: cell-based
CONDITION_PARAMETERS: MCF7, 20 h, read-out: residual STS activity [%] 100 nM
# output: numeric value plus its unit

Go through the list and state remaining activity at 0.1 µM for each entry.
1. NS(=O)(=O)Oc1ccc(-c2cn(-c3cccc(F)c3)nn2)cc1 [5g]
2. NS(=O)(=O)Oc1ccc(-c2cn(-c3cc(F)cc(F)c3)nn2)cc1 [5l]

output:
1%
1%

====

Assay type: in vivo
CONDITION_PARAMETERS: Table S1, MTD study, 50 mg/kg
MEASUREMENT_KIND: RBC

Some compounds with recorded RBC:
test_smiles=NS(=O)(=O)Oc1ccc(-c2cn(-c3cc(Cl)cc(Cl)c3)nn2)cc1 measurement_kind=RBC test_value="9,4±0,4 10x6/uL"
test_smiles=NS(=O)(=O)Oc1ccc(-c2cn(-c3cccc(Cl)c3)nn2)cc1 measurement_kind=RBC test_value="8,8±0,1 10x6/uL"
test_smiles=NS(=O)(=O)Oc1ccc(-c2cn(-c3cccc(F)c3)nn2)cc1 measurement_kind=RBC test_value="8,8±0,01 10x6/uL"
test_smiles=NS(=O)(=O)Oc1ccc(-c2cn(-c3cc(F)cc(F)c3)nn2)cc1 measurement_kind=RBC test_value="8,9±0,4 10x6/uL"

Attention now turns to another entry.
input: Would you kindly share the measured RBC for NS(=O)(=O)Oc1ccc(-c2cn(-c3ccc(F)c(F)c3F)nn2)cc1 ?
output: 9,2±0,4 10x6/uL

====

TESTED_SYSTEM: STS in MCF-7 cells (Homo sapiens)
Construct: The radioisotope cellular assay was performed using the MCF-7 cell line; endogenous in cells; host or cells: MCF-7
Sequence (P08842 22-583): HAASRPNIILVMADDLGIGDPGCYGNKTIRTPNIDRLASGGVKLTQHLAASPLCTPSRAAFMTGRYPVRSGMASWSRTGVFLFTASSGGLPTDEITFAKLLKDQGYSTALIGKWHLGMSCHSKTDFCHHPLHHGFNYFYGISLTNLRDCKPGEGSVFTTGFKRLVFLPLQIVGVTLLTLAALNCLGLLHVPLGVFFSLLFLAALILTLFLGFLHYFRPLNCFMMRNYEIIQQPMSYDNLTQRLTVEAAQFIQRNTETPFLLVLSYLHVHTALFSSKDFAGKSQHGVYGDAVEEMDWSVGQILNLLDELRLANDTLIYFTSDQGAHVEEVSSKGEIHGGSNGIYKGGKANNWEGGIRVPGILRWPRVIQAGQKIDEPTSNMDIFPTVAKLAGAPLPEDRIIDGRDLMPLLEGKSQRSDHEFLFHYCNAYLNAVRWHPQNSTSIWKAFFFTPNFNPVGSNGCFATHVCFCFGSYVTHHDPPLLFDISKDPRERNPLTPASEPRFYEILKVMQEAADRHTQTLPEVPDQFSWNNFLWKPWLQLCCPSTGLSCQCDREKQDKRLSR
TEST_DESCRIPTION: radioisotope cellular assay with [3H]E1S in MCF-7 cells
Type: cell-based
CONDITION_PARAMETERS: MCF7, 20 h, read-out: residual STS activity [%] 1 nM
Rule: remaining activity at 0.001 µM below 40% gives rule met. Equal to or above 40% gives rule not met.

compound="NS(=O)(=O)Oc1ccc(-c2cn(-c3cccc(Cl)c3)nn2)cc1 [4a]" class_assignment="rule met"
compound="NS(=O)(=O)Oc1ccc(-c2cn(-c3cc(F)cc(F)c3)nn2)cc1 [5l]" class_assignment="rule met"
compound="NS(=O)(=O)Oc1ccc(-c2cn(-c3cccc(F)c3)nn2)cc1 [5g]" class_assignment="rule not met"

Kindly review the next compound as well.
input: Could you please tell me whether remaining activity at 0.001 µM recorded for NS(=O)(=O)Oc1ccc(-c2cn(-c3cc(Cl)cc(Cl)c3)nn2)cc1 [4b] is less than 40%?
output: rule not met

====

TESTED_SYSTEM: STS isolated from the human placenta (Homo sapiens)
Construct: radioisotope enzymatic assay using STS isolated from the human placenta; from tissue; host or cells: human placenta
Sequence (P08842 22-583): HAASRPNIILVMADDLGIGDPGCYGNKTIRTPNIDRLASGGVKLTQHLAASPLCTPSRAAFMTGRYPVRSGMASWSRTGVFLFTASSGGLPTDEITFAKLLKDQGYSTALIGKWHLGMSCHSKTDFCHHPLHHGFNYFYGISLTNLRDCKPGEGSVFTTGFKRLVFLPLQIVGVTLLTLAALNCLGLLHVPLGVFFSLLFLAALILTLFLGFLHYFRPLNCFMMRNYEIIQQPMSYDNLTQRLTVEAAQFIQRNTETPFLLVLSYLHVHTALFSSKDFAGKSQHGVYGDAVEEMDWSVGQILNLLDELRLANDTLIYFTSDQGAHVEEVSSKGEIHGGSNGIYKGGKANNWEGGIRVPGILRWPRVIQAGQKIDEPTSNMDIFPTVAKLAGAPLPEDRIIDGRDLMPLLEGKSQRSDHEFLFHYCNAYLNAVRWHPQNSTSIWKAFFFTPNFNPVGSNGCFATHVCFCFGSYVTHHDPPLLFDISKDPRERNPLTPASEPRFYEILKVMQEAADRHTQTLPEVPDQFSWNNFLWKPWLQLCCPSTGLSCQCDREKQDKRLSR
TEST_DESCRIPTION: radioisotope enzymatic assay with STS isolated from human placenta and [3H]E1S
Assay type: biochemical
CONDITION_PARAMETERS: read-out: residual STS activity [%]
Please respond with reported remaining activity at 0.5 µM for every item in the list.
Numbers only, in %.

Working through the 4 compounds below one at a time, give remaining activity at 0.5 µM for each.
1. NS(=O)(=O)Oc1ccc(-c2cn(-c3cccc(Cl)c3)nn2)cc1
2. NS(=O)(=O)Oc1ccc(-c2cn(-c3cc(Cl)cc(Cl)c3)nn2)cc1
3. NS(=O)(=O)Oc1ccc(-c2cn(-c3cc(F)cc(F)c3)nn2)cc1
4. NS(=O)(=O)Oc1ccc(-c2cn(-c3cccc(F)c3)nn2)cc1

output:
19.5
13.3
17.3
37.9

====

Assay type: in vivo
CONDITION_PARAMETERS: Table S1, MTD study, 50 mg/kg
Can you tell me WBC for the items I'm about to list?

Example cases with answers are listed next.
compound="NS(=O)(=O)Oc1ccc(-c2cn(-c3cc(F)cc(F)c3)nn2)cc1 [5l]" test_value="4,2±0,6 10x3/uL"
compound="NS(=O)(=O)Oc1ccc(-c2cn(-c3cc(Cl)cc(Cl)c3)nn2)cc1 [4b]" test_value="5,1±1,6 10x3/uL"
compound="NS(=O)(=O)Oc1ccc(-c2cn(-c3ccc(F)c(F)c3F)nn2)cc1 [5e]" test_value="4,0±0,4 10x3/uL"
compound="NS(=O)(=O)Oc1ccc(-c2cn(-c3cccc(Cl)c3)nn2)cc1 [4a]" test_value="4,5±0,3 10x3/uL"

input: I have this compound here, NS(=O)(=O)Oc1ccc(-c2cn(-c3cccc(F)c3)nn2)cc1 [5g] , and I need its recorded WBC.
output: 4,9±1,3 10x3/uL

====

Type: in vivo
CONDITION_PARAMETERS: Table S1, MTD study, 50 mg/kg
Would you kindly list HGB for each of these compounds?

Worked cases, HGB given:
test_smiles=NS(=O)(=O)Oc1ccc(-c2cn(-c3cc(F)cc(F)c3)nn2)cc1 measurement_kind=HGB test_value="15,4±0,5 g/dL"
test_smiles=NS(=O)(=O)Oc1ccc(-c2cn(-c3cc(Cl)cc(Cl)c3)nn2)cc1 measurement_kind=HGB test_value="16,4±0,6 g/dL"
test_smiles=NS(=O)(=O)Oc1ccc(-c2cn(-c3ccc(F)c(F)c3F)nn2)cc1 measurement_kind=HGB test_value="15,7±0,5 g/dL"
test_smiles=NS(=O)(=O)Oc1ccc(-c2cn(-c3cccc(F)c3)nn2)cc1 measurement_kind=HGB test_value="15,2±0,2 g/dL"

Moving on to another compound below.
input: Please report the recorded HGB for NS(=O)(=O)Oc1ccc(-c2cn(-c3cccc(Cl)c3)nn2)cc1 .
output: 15,1±0,2 g/dL

Origin of the recorded values: paper PMC8958511
